We begin with a simple list: items and their reported MIC.
- Test system: Staphylococcus aureus ATCC 43300, MRSA
- Format: cell-based
- run-conditions: ATCC 43300, 18 h
Numbered stars: 1 amine (or outer) side, 2 acyl side, 3 side chain; on linkers, the order of the positions; unused ones are H or OH. Square brackets hold non-standard residues; d marks the D form. Peptide text beside a SMILES is read from it. * marks the point of attachment. X13 = O=C([C@H](Cc1nc2ccc(F)cc2s1)N[*:1])[*:2]; Ala(thiazol-2-yl) = N[C@@H](Cc1nccs1)C(=O)O; NH(1-CH2NMe2-cBu) = CN(C)CC1(N*)CCC1; Benzoyl(4-F) = O=C(c1ccc(F)cc1)*; Aib = CC(C)(N)C(=O)O; βAla = NCCC(=O)O
result-type: MIC (µg/mL)

| compound | readout-unit | readout-number |
| --- | --- | --- |
| Cc1nc(C(=O)N2CCC[C@H]2C(=O)N[C@@H](Cc2c[nH]c3ccccc23)C(=O)N[C@@H](CC(C)C)C(=O)NC(C)(C)C(=O)N[C@@H](CC(C)C)C(=O)N[C@@H](CC(C)C)C(=O)NC(C)(C)C(=O)NC(C)(C)C(=O)NCCC(=O)NC2(CN(C)C)CCC2)co1 [Compound 6779] (HELM PEPTIDE1{[Cc1nc(C(=O)[*:2])co1].P.W.L.[Aib].L.L.[Aib].[Aib].[bAla].[CN(C)CC1(N[*:1])CCC1]}$$$$V2.0) | µg/mL | 8 |
| CC(C)C[C@H](NC(=O)[C@H](Cc1nc2ccc(F)cc2s1)NC(=O)[C@@H]1CCCN1C(=O)c1ccc(F)cc1)C(=O)NC(C)(C)C(=O)N[C@@H](CC(C)C)C(=O)N[C@@H](CC(C)C)C(=O)NC(C)(C)C(=O)NC(C)(C)C(=O)NCCC(=O)NC1(CN(C)C)CCC1 [Compound 7848] ({Benzoyl(4-F)}-P[X13]L[Aib]LL[Aib][Aib][βAla]-{NH(1-CH2NMe2-cBu)}) | µg/mL | 4 |
| CC(C)C[C@H](NC(=O)[C@H](Cc1nccs1)NC(=O)[C@@H]1CCCN1C(=O)c1ccc(F)cc1)C(=O)NC(C)(C)C(=O)N[C@@H](CC(C)C)C(=O)N[C@@H](CC(C)C)C(=O)NC(C)(C)C(=O)NC(C)(C)C(=O)NCCC(=O)NC1(CN(C)C)CCC1 [Compound 7842] ({Benzoyl(4-F)}-P[Ala(thiazol-2-yl)]L[Aib]LL[Aib][Aib][βAla]-{NH(1-CH2NMe2-cBu)}) | µg/mL | 32 |
